Target: guanosine/adenosine/cytidine nucleoside hydrolase (GACNH) (Trichomonas vaginalis, UniProt A2DN71)
Experiment: 1H NMR-based activity assay of GACNH
Assay type: biochemical
Details: read-out: IC50 (μM) with Triton; GACNH, in the presence of 0.01% Triton X-100
endpoint_name: IC50

Problem: Recorded IC50 of O=C1c2c(O)cc(O)cc2O[C@H](c2ccc(O)c(O)c2)[C@H]1O (racemic) [(±)-Taxifolin] , please.
Solution: 41.6 µM

---

Target: guanosine/adenosine/cytidine nucleoside hydrolase (GACNH) (Trichomonas vaginalis, UniProt A2DN71)
Test: 1H NMR-based activity assay of GACNH
Format: biochemical
Settings: IC50 (μM) with Triton, GACNH, in the presence of 0.01% Triton X-100
Rule: IC50 below 9 µM gives condition met. Equal to or above 9 µM gives condition not met.

Worked examples, 3 molecules total:
O=c1c(O[C@@H]2O[C@H](CO)[C@H](O)[C@H](O)[C@H]2O)c(-c2ccc(O)c(O)c2)oc2cc(O)cc(O)c12 [Hyperoside]; condition not met
OC[C@H]1O[C@@H](n2cnc3c(NC4CCCC4)nc(Cl)nc32)[C@H](O)[C@@H]1O; condition not met
O=c1c(O[C@@H]2O[C@H](CO)[C@@H](O)[C@H](O)[C@H]2O)c(-c2ccc(O)c(O)c2)oc2cc(O)cc(O)c12; condition met

Problem: Record COc1ccc(-c2oc3c(CC=C(C)C)c(O[C@@H]4O[C@H](CO)[C@@H](O)[C@H](O)[C@H]4O)cc(O)c3c(=O)c2O[C@@H]2O[C@@H](C)[C@H](O)[C@@H](O)[C@H]2O)cc1 : is its IC50 strictly below 9 µM?
Solution: condition met

Problem: Record CCc1oc2ccccc2c1C(=O)c1cc(Br)c(O)c(Br)c1 : is its IC50 strictly below 9 µM?
Solution: condition not met
